Molecular target: CDK2/CyclinA2 (Homo sapiens)
Assay: ADP Glo kinase assay, CDK2/CyclinA2
Assay type: biochemical
Settings: compound at 1 μM, read-out: Residual enzymatic activity (%) at 1 μM, CDK2 A
MEASURED ENDPOINT: remaining activity at 1 µM (%)

Example results:
COMPOUND	remaining activity at 1 µM (%)
CN(C)c1ccc(Nc2nccc(-c3cnc4ccc(-c5ccc(F)nc5)cn34)n2)cn1	61
COc1ccc(-c2ccc3ncc(-c4ccnc(Nc5ccc(N6CCN(C(C)=O)CC6)nc5)n4)n3c2)cn1	34
O=C(c1ccco1)N1CCN(c2ccc(Nc3nccc(-c4cnc5ccc(-c6ccccc6)cn45)n3)cn2)CC1	49
Cc1cnc(Nc2ccc(N3CCN(C)CC3)nc2)nc1-c1cnc2ccc(-c3ccccc3)cn12	90
c1ccc(-c2ccc3ncc(-c4ccnc(Nc5ccc(NC6CCOCC6)nc5)n4)n3c2)cc1	73

(A) O=C(c1ccco1)N1CCN(c2ccc(Nc3nccc(-c4cnc5ccc(Br)cn45)n3)cn2)CC1
(B) CN1CCN(c2ccc(Nc3nccc(-c4cnc5ccc(-c6cccnc6)cn45)n3)nc2)CC1 [Comparator compound C, reference compound]
(C) CCN1CCN(Cc2ccc(Nc3nccc(-c4cnc5ccc(-c6ccccc6)cn45)n3)cn2)CC1
Problem: Order the entries by their reported remaining activity at 1 µM, beginning at the minimum. Give the labels in the order specified.
Solution: C, A, B
(C: 37%, A: 57%, B: 94%)

(a) CC(=O)N1CCN(c2ccc(Nc3nccc(-c4cnc5ccc(-c6ccccc6)cn45)n3)cn2)CC1
(b) CCS(=O)(=O)N1CCN(c2ccc(Nc3nccc(-c4cnc5ccc(Br)cn45)n3)cn2)CC1
Problem: Between the entries labeled a and b , whose measured remaining activity at 1 µM is lower? Identify your pick by its label.
Solution: b
(b: 44%, a: 63%)
